# Tested on: Candida albicans
# TEST PROTOCOL: Antifungal activity against Candida albicans ATCC 10231 at 100 ug/mL after 24 hrs by disk diffusion method
# Format: functional
# STUDY CONDITIONS: ATCC 10231, 24 h, read-out: DIZ
Measured zone of inhibition at 100 µg/mL of individual entries
Write down the numeric answer in mm and omit the unit.

Solved cases (5 shown):
Cc1c(C(c2ccccc2)c2c(C)n(Cc3cn(Cc4ccc(Cl)cc4)nn3)c3ccccc23)c2ccccc2n1Cc1cn(Cc2ccc(Cl)cc2)nn1 :: 19
Brc1ccc2c(c1)c(C(c1ccccc1)c1cn(Cc3cn(Cc4ccccc4)nn3)c3ccc(Br)cc13)cn2Cc1cn(Cc2ccccc2)nn1 :: 21
Clc1ccc(Cn2cc(Cn3cc(C(c4ccccc4)c4cn(Cc5cn(Cc6ccc(Cl)cc6)nn5)c5ccc(Br)cc45)c4cc(Br)ccc43)nn2)cc1 :: 21
Clc1ccc(Cn2cc(Cn3cc(C(c4ccccc4)c4cn(Cc5cn(Cc6ccc(Cl)cc6)nn5)c5ccccc45)c4ccccc43)nn2)cc1 :: 20
Cc1c(C(c2ccc(Cl)cc2)c2c(C)n(Cc3cn(Cc4ccc(Cl)cc4)nn3)c3ccccc23)c2ccccc2n1Cc1cn(Cc2ccc(Cl)cc2)nn1 :: 18

Here's the next entry for you.
Request the reported zone of inhibition at 100 µg/mL associated with COc1ccc(C(c2cn(Cc3cn(Cc4ccccc4)nn3)c3ccccc23)c2cn(Cc3cn(Cc4ccccc4)nn3)c3ccccc23)cc1
17

====

# Tested on: Candida albicans
# TEST PROTOCOL: Antifungal activity against Candida albicans ATCC 10231 at 100 ug/mL after 24 hrs by disk diffusion method
# Format: functional
# STUDY CONDITIONS: ATCC 10231, 24 h, read-out: DIZ
We begin with a simple list: items and their reported zone of inhibition at 100 µg/mL.
Note: unit mm is implicit; provide only the numeric part.

These recorded examples may help you get a feel for the data.
Clc1ccc(Cn2cc(Cn3cc(C(c4ccc(Cl)cc4)c4cn(Cc5cn(Cc6ccc(Cl)cc6)nn5)c5ccccc45)c4ccccc43)nn2)cc1 :: 16
CC(=O)N1CCN(c2ccc(OCC3COC(Cn4ccnc4)(c4ccc(Cl)cc4Cl)O3)cc2)CC1 (centres undefined) [KETOCONAZOLE] :: 24
COc1ccc(C(c2c(C)n(Cc3cn(Cc4ccc(Cl)cc4)nn3)c3ccccc23)c2c(C)n(Cc3cn(Cc4ccc(Cl)cc4)nn3)c3ccccc23)cc1 :: 20

# evaluate next
# zone of inhibition at 100 µg/mL lookup, item COc1ccc(Cn2cc(Cn3cc(C(c4ccc(OC)cc4)c4cn(Cc5cn(Cc6ccc(OC)cc6)nn5)c5ccccc45)c4ccccc43)nn2)cc1
16

====

Quick reference: zone of inhibition at 100 µg/mL of the listed items.
# Tested on: Candida albicans
# TEST PROTOCOL: Antifungal activity against Candida albicans ATCC 10231 at 100 ug/mL after 24 hrs by disk diffusion method
# Type: functional
# STUDY CONDITIONS: ATCC 10231, 24 h, read-out: DIZ
Report as a plain number; the unit mm is understood.

COc1ccc(C(c2cn(Cc3cn(Cc4ccc(Cl)cc4)nn3)c3ccccc23)c2cn(Cc3cn(Cc4ccc(Cl)cc4)nn3)c3ccccc23)cc1 :: 21
COc1ccc(C(c2cn(Cc3cn(Cc4ccccc4)nn3)c3ccc(Br)cc23)c2cn(Cc3cn(Cc4ccccc4)nn3)c3ccc(Br)cc23)cc1 :: 16
COc1ccc(Cn2cc(Cn3cc(C(c4ccccc4)c4cn(Cc5cn(Cc6ccc(OC)cc6)nn5)c5ccccc45)c4ccccc43)nn2)cc1 :: 16
c1ccc(Cn2cc(Cn3cc(C(c4ccccc4)c4cn(Cc5cn(Cc6ccccc6)nn5)c5ccccc45)c4ccccc43)nn2)cc1 :: 16
Cc1c(C(c2ccc(Cl)cc2)c2c(C)n(Cc3cn(Cc4ccccc4)nn3)c3ccccc23)c2ccccc2n1Cc1cn(Cc2ccccc2)nn1 :: 18

Can you look up the measured zone of inhibition at 100 µg/mL of Cc1c(C(c2ccccc2)c2c(C)n(Cc3cn(Cc4ccccc4)nn3)c3ccccc23)c2ccccc2n1Cc1cn(Cc2ccccc2)nn1 for me?
16
